# System: Jurkat E6-1 human T-cell lymphoma
# Method description: CCK-8 proliferation inhibition, Jurkat E6-1
# Format: cell-based
# Test context: Homo sapiens, Jurkat E6.1, 10 μM
Overview of recorded inhibition at 10 µM for various compounds
In your response, put the unit directly after the numeric value.

# input I am curious: what inhibition at 10 µM value has been reported for `COc1ccc(/C=C/C(=O)NCc2ccc(C(=O)Nc3cccnc3N)cc2)cc1OC` ?
# output 23.4%

# input What would you report for `Cc1ccc(/C=C/C(=O)NCc2ccc(C(=O)Nc3ccncc3N)cc2)cc1` ?
# output 84.8%

# input Further, for `Nc1ncccc1NC(=O)c1ccc(CNC(=O)OCc2cccnc2)cc1` ?
# output 48.5%

# input Next: `Nc1ncccc1NC(=O)c1ccc(CNC(=O)OCc2ccc(F)cc2)cc1`
# output 19.1%

# input Same again, this time with `COc1ccc(COC(=O)NCc2ccc(C(=O)Nc3ccncc3N)cc2)cc1OC`
# output 15.4%
